biological target: Inadl_3, Q8NI35; assay: holdup assay; set-up: key: below the threshold = too weak to quantify, mostly under pKd 3.1 to 4; conditions: plain residues with an end cap or a label only (N-terminal biotin on a linker: ado-ado)
Sequence (Q8NI35 359-469): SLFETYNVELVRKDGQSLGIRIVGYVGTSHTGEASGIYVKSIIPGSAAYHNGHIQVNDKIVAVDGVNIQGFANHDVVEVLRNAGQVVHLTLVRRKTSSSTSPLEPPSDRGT
Reported Endpoint: pKd

Consider the worked cases shown below.
In [3]: df
Out[3]:
                        binder   experimental_value
0  IQISELETNV [SLC1A7, O00341]                    4
1  NSTHNLKDYV [CLDN20, P56880]  below the threshold
2   QLGSPTADLA [SIPA1, Q96FS4]  below the threshold
3  KIEDVEITLV [FCHSD2, O94868]                 4.43
4   SSSVNVSSNL [CXCR1, P25024]  below the threshold

State its pKd: PAALPESTHM [SLC9A3, P48764] below the threshold

State its pKd: PSDSVGKDVF [EGLN1, Q9GZT9] below the threshold

State its pKd: QKASRNESTF [POLR1D, P0DPB6] below the threshold

State its pKd: NNMAFETTHF [SLC5A12, Q1EHB4] below the threshold

State its pKd: STYCDYTIEI [FAM71C, Q8NEG0] 5

State its pKd: QRYPGNQTTC [CCL24, O00175] below the threshold

State its pKd: YAEKRMLTEV [KCNA6, P17658] below the threshold

State its pKd: WAKEKQHTRL [SLC17A1, Q14916] below the threshold

State its pKd: HYPASPDSWV [CTNND2, Q9UQB3] below the threshold

State its pKd: PALKNGQYWV [CSPG4, Q6UVK1] 3.58

State its pKd: SRPHTNETSL [MCC, P23508] below the threshold
